Data origin: PubChem BioAssay (NCI)

- Tested on: SN12C renal
- test protocol: NCI tumour cell line growth inhibition, 48 h; in the data active = GI50 below about 0.43 µM; inactive = the rest
Just give me one of these, please: t = active, f = inactive

Take a look at these entries with their results.
molecule	class
CC[C@@]1(O)C(=O)OCc2c1cc1n(c2=O)Cc2cc3c([N+](=O)[O-])c(O)ccc3nc2-1	t
CC[C@]12C=CCN3CC[C@@]4(c5ccc(OC)cc5N(C)[C@H]4[C@@](O)(C(=O)OC)[C@@H]1OC(=O)CCCC[P+](c1ccccc1)(c1ccccc1)c1ccccc1)[C@@H]32	t
CCN(CC)c1ccc(CNc2cc(C)nc3ccc(OC)cc23)cc1	f
O=C1C2=C(C(=O)c3c(O)ccc(O)c31)N(c1cccnc1)Cc1ccccc1O2	t
CN(C)c1ccc(/C=N/NC(=O)CSc2nc3sc4c(c3c(=O)n2-c2ccccc2)CCCCC4)cc1	f

Task: Assay result, entry N=C(N)c1ccc(CS(=O)(=O)F)cc1 — outcome?
Output: f

Task: Next molecule: O=c1[nH]ccc2nc(N3CCC(O)CC3)nc(Nc3ccc(N4CCOCC4)cc3)c12
Output: f

Task: Next molecule: CCCCCCCC(=O)SCC/C=C/[C@@H]1CC(=O)NCc2cccc(n2)C2=N[C@@](C)(CS2)C(=O)N[C@@H](C(C)C)C(=O)O1
Output: t

Task: Next molecule: COc1ccc(/C=C(/C(=O)N2CCN(c3ccc(C)cc3)CC2)c2cc(OC)c(OC)c(OC)c2)cc1N
Output: f

Task: Next molecule: COc1cc2c(cc1OCCCOc1cc3c(cc1OC)C(=O)N1CC(F)(F)C[C@H]1C=N3)N=C[C@@H]1CC(F)(F)CN1C2=O
Output: t

Task: Next molecule: Nc1nc2ccccc2c2[nH]c3ccccc3c12
Output: f

Task: Next molecule: C=CC1CC12C(=O)C1OC2(C)C2C(=O)c3c(O)cccc3C(=O)C12 (stereo not given)
Output: f

Task: Next molecule: O=C1c2cccc3c([N+](=O)[O-])ccc(c23)C(=O)N1CCCCl
Output: f

Task: Next molecule: O=c1ncc(I)c[nH]1
Output: f

Task: Next molecule: COc1ccccc1CN=C1NC(=O)/C(=C/c2ccc3ncccc3c2)S1
Output: f
